// data source = patent US20070232789A1

# assayedTarget: T1, low-density lipoprotein receptor-related protein (LRP), purified (human, UniProt Q07954 20-4544)
# T1 construct: mature; also called low density lipoprotein receptor-related protein/α2-macroglobulin receptor; LRP receptor
# T1 sequence (Q07954 20-4544, form in doubt): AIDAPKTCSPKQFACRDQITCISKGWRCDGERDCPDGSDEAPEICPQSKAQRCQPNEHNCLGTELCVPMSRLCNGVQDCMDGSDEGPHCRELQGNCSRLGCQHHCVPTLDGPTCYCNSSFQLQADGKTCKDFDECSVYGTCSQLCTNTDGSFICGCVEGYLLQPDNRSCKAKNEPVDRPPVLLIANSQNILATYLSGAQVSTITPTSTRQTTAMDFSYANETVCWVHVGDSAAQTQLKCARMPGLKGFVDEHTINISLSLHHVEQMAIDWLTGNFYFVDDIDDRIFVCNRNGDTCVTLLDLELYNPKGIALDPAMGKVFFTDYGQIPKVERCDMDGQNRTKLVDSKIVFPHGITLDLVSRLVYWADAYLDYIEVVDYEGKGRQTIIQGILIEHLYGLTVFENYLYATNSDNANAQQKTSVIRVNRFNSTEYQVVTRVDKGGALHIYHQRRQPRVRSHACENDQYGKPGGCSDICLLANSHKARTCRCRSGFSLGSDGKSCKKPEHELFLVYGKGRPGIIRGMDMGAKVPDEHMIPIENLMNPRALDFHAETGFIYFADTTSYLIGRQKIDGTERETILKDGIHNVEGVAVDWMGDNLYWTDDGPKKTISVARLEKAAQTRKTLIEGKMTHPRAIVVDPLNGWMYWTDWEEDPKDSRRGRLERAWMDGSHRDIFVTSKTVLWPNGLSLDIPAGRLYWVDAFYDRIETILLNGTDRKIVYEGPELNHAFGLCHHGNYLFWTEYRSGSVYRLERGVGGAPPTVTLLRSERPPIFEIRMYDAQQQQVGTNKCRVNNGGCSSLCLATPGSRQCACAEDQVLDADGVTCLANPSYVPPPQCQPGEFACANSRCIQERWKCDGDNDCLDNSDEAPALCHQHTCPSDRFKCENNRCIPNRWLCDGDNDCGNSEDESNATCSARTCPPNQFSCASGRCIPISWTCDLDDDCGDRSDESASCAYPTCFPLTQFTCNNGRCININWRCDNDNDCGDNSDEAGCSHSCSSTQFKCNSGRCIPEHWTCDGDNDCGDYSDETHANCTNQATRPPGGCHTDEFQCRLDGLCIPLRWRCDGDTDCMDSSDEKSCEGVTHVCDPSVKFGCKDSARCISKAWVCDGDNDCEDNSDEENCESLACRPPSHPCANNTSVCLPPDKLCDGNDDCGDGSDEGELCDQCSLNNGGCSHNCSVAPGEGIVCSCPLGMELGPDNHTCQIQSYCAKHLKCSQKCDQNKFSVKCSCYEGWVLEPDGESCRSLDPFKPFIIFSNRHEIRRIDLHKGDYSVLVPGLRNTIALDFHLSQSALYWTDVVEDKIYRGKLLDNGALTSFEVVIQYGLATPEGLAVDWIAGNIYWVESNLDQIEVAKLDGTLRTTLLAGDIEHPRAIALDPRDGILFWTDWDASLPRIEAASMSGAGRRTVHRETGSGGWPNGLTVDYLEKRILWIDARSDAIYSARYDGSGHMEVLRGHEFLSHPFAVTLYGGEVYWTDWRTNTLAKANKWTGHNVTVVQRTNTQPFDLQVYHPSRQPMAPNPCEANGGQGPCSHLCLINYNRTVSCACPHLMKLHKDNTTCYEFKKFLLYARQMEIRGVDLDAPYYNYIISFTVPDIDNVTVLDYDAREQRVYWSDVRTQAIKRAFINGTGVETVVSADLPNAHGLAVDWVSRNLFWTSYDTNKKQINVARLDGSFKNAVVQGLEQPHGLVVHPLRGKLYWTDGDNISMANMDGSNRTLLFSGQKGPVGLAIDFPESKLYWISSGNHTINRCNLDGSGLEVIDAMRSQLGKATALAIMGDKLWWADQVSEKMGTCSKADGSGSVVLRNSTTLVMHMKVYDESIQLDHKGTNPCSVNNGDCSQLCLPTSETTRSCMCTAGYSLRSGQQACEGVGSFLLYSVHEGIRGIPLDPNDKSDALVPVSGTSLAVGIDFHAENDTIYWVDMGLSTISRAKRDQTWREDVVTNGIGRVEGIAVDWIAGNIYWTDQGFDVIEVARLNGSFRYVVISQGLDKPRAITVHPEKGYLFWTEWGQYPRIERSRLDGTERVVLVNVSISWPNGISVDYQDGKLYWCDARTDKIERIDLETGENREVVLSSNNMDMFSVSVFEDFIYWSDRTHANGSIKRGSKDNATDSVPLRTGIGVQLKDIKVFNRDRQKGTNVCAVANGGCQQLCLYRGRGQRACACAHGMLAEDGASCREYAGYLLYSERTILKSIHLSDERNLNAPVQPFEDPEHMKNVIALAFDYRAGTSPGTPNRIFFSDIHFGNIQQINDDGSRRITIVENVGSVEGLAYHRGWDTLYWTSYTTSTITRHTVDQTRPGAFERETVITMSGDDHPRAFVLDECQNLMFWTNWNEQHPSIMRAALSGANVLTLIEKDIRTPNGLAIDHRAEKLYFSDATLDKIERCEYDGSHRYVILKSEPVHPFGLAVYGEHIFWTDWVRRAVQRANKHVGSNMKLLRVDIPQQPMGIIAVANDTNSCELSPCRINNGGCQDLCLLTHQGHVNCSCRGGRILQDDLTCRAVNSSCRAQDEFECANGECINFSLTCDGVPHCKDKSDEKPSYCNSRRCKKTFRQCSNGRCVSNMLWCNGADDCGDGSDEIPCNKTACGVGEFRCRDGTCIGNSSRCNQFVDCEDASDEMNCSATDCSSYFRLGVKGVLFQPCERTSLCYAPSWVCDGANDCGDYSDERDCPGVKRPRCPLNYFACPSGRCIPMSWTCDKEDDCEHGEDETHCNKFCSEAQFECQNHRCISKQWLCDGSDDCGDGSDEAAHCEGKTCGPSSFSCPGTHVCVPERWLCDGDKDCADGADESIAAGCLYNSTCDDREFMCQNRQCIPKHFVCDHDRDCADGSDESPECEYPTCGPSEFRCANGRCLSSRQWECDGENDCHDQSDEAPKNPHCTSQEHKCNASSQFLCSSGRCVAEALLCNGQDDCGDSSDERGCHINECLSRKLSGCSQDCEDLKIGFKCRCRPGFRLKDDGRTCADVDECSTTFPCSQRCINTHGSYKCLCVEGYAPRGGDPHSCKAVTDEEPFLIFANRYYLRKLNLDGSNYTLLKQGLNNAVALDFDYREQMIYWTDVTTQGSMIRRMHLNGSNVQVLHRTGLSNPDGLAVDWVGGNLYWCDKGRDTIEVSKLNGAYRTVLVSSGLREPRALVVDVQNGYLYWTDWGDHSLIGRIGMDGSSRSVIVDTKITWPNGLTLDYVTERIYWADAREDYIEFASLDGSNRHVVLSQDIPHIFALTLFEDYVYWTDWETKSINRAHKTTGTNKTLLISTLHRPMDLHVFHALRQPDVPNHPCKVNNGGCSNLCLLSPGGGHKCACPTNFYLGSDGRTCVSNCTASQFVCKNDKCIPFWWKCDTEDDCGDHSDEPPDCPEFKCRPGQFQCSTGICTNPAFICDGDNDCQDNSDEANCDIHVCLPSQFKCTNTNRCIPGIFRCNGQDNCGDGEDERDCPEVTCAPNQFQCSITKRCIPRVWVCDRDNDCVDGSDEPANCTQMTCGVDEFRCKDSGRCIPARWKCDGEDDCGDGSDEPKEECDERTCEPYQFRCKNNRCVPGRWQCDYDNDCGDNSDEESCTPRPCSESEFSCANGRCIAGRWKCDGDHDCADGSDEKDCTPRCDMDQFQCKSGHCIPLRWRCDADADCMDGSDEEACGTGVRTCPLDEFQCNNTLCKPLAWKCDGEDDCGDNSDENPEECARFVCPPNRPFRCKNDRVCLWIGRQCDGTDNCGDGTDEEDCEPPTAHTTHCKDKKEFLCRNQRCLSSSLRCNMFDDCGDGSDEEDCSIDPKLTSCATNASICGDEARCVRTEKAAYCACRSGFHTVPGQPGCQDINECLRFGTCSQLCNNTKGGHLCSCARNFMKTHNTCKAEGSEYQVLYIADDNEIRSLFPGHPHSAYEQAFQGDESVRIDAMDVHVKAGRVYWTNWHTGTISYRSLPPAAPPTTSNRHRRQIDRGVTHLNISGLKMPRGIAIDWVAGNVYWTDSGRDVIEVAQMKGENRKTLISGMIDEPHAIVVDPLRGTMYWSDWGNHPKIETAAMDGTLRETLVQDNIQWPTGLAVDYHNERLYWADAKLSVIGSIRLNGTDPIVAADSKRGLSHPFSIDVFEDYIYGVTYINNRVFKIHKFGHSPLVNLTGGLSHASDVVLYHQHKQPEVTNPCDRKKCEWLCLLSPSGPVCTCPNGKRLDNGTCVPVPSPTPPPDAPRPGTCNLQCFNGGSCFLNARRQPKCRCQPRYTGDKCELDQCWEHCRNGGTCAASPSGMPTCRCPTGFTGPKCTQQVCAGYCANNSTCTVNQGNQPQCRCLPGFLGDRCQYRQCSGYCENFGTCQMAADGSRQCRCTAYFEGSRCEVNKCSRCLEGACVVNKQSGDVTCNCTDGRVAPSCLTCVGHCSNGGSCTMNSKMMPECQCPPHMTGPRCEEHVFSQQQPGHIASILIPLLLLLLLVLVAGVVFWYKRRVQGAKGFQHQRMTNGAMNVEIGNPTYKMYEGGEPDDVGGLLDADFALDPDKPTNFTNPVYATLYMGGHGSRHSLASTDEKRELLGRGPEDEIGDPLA
# assayRemarks: SPR, BIAcore 3000, one-site model, KD = koff/kon
# Excerpt: Surface plasmon resonance-based binding assay. […] This system allows real-time biomolecular interaction analysis (BIA) using surface plasmon resonance (SPR) technology. One molecule (the ligand) is usually immobilized on the surface of the sensor chip; the second molecule (the analyte) in solution is passed over the chip under conditions of continuous flow, and the amount of the bound analyte is detected by the system. […]
pKd: −log10 of the molar value.
experimentalReadout: pKd

recombinant A2 mutant #13 (Lys-493 to Ala) (other, hx-A2 form from Sf9 cells) SGAKKHPKTWVHYIAAEEEDWDYAPLVLAPDDRSYKSQYLNNGPQRIGRKYKKVRFMAYTDETFKTREAIQHESGILGPLLYGEVGDTLLIIFKNQASRPYNIYPHGITDVRPLYSRRLPAGVKHLKDFPILPGEIFKYKWTVTVEDGPTKSDPRCLTRYYSSFVNMERDLASGLIGPLLICYKESVDQRGNQIMSDKRNVILFSVFDENRSWYLTENIQRFLPNPAGVQLEDPEFQASNIMHSINGYVFDSLQLSVCLHEVAYWYILSIGAQTDFLSVFFSGYTFKHKMVYEDTLTLFPFSGETVFMSMENPGLWILGCHNSDFRNRGMTALLKVSSCDKNTGDYYEDSYEDISAYLLSKNNAIEPR ... 7.74
